The reported numbers originate from PubChem BioAssay (Tox21).

test: qHTS assay to identify small molecule antagonists of the androgen receptor (AR) signaling pathway using the MDA cell line in the presence of 0.5 nM R1881 - cell viability counter screen (AID 1259242); note: nearly all actives have a fitted effect of over 45% in size
study.conditions: MDA-kb2 viability, CellTiter-Fluor protease fluorescence, 16 h; series mostly up to 92.4 µM
Results filed as inconclusive are left out. The source made the active and inactive calls. Calls come from the whole dose curve; as a rule, active = well fitted cell-killing curve with a large enough effect in the repeat runs; inconclusive = weak or mixed curves, or effect the other way; inactive = flat fitted curve, though single readings scatter.
Outcomes: TRUE = active, FALSE = inactive

Oc1ccc2cc(SSc3ccc4cc(O)ccc4c3)ccc2c1
FALSE
O=c1c(-c2ccccc2)c1-c1ccccc1
FALSE
NNc1nc(-c2ccc([N+](=O)[O-])cc2)cs1
TRUE
Cc1cc(C2CCCCC2)n(O)c(=O)c1
FALSE
O=C(N/N=C/c1ccccc1O)c1ccncc1
FALSE
COc1cccc(N)c1
FALSE
Cc1c(C)c2c(c(C)c1O)CCC(C)(COc1ccc(CC3SC(=O)NC3=O)cc1)O2 (stereo not drawn)
FALSE
CCN(C(=O)c1cc(C)cc(OC[C@H](C)Nc2ccncc2)c1)C(C)C
FALSE
CCOC(=O)/C=C(C)/C=C/C=C(C)/C=C/c1c(C)cc(OC)c(C)c1C
FALSE
CCCCC(CC)COC(=O)c1ccccc1C(=O)O (stereo not drawn)
FALSE
Cc1cccc(N(C)C(=S)Oc2ccc3c(c2)C2CCC3C2)c1 (stereo not drawn)
FALSE
CCN(Cc1cccnc1)C(=O)c1cccc(Cl)c1[C@]1(C)C(=O)N(Cc2ccc(OC)cc2OC)c2ccc(Cl)cc21
FALSE
CCOC(=O)O[C@H](C)OC(=O)c1ccc2c(c1)cc(C(=O)NC1CCN(C(C)C)CC1)n2Cc1cc(-c2ccc(Cl)s2)on1
TRUE
O=[N+]([O-])c1ccccc1Nc1ccccc1
FALSE
CCCCCCCCOc1ccccc1C(=O)Nc1ccc(C(=O)OCC[N+](C)(CC)CC)cc1
FALSE
Oc1cccc2cc3cccc(O)c3c(O)c12
FALSE
O=C(OCC1CO1)C1CCCCC1C(=O)OCC1CO1 (stereo not drawn)
FALSE
O=C1CCCCCN1SSN1CCCCCC1=O
FALSE
COC(=O)C1=C(C)NC(C)=C(C(=O)OCC(C)C)C1c1ccccc1[N+](=O)[O-] (stereo not drawn)
FALSE
Fc1ccc([C@@H]2CCNC[C@H]2COc2ccc3c(c2)OCO3)cc1
FALSE
CCCCCOC(=O)CCCC
FALSE
O=C(O)c1ccc(Cl)c(Cl)c1
FALSE
CCCCCCCCn1sc(Cl)c(Cl)c1=O
TRUE
Cc1oc(-c2ccccc2)nc1CCC(=O)c1ccc(CC2SC(=O)NC2=O)cc1 (stereo not drawn)
FALSE
CN1CCC(Nc2ncc3ncnc(Nc4ccc(F)c(Cl)c4)c3n2)CC1
FALSE
CCCCCCCCCOC(=O)c1ccc(O)cc1
FALSE
C/C=C(\C)C(=O)OCc1ccccc1
FALSE
OCCCCCCCCCCCCBr
FALSE
O=c1[nH]sc2cc(Cl)ccc12
FALSE
Cc1cc(N)c(S(=O)(=O)O)cc1Cl
FALSE
CCC(C)Nc1ccc(NC(C)CC)cc1 (stereo not drawn)
TRUE
CCC(N)(CO)CO
FALSE
O=c1[nH]cnc2nc[nH]c12
FALSE
Nc1c(Cl)cc(Cl)cc1Cl
FALSE
NC(=O)NS(=O)(=O)c1ccc(N)cc1
FALSE
CCCC(c1cc(C(C)(C)C)c(O)cc1C)c1cc(C(C)(C)C)c(O)cc1C
TRUE
C[C@@H]1C[C@H]2[C@@H]3CCC4=CC(=O)C=C[C@]4(C)[C@@]3(Cl)[C@@H](O)C[C@]2(C)[C@@]1(OC(=O)c1ccco1)C(=O)CCl
FALSE
O=C1c2ccccc2Cc2ccccc21
FALSE
CCCC/C=C/CCCCO
FALSE
Cc1ccc(O)c(C(C)(C)C)c1
FALSE
CC(C)OC(=O)c1cc2c(OCC(O)CNC(C)(C)C)cccc2[nH]1 (stereo not drawn)
FALSE
CCCCCCCCCCCCCCCC(=O)OC[C@H](O)[C@H]1OC(=O)C(O)=C1O
FALSE
[Cl][Bi]([Cl])([c]1ccccc1)([c]1ccccc1)[c]1ccccc1
TRUE
CCC(Cl)C(Cl)C(Cl)CC(Cl)C(Cl)C(C)Cl (stereo not drawn)
FALSE
Cc1ccc(-n2nc(C(C)(C)C)cc2NC(=O)Nc2ccc(OCCN3CCOCC3)c3ccccc23)cc1
FALSE
CC(=O)N1CCN(c2ccc(OC[C@H]3CO[C@](Cn4ccnc4)(c4ccc(Cl)cc4Cl)O3)cc2)CC1
TRUE
CN(C)c1ccc(C2(c3ccc(N(C)C)cc3)OC(=O)c3cc(N(C)C)ccc32)cc1
FALSE
CC[C@@]1(O)C(=O)OCc2c1cc1n(c2=O)Cc2c-1nc1ccccc1c2/C=N/OC(C)(C)C
FALSE
